ASSAY METHOD TEXT: Solubility of nano-bruceantin in aqueous solution (visual examination, UV-Vis spectroscopy)
Assay type: physicochemical
RESULT TYPE: solubility

According to the records, this compound COC(=O)[C@@]12OC[C@]34[C@H]([C@@H](O)[C@@H]1O)[C@@]1(C)CC(=O)C(O)=C(C)[C@@H]1C[C@H]3OC(=O)[C@H](OC(=O)/C=C(\C)C(C)C)[C@@H]24 [bruceantin] displays solubility of < 100 µg/mL
